// reported IC50 per item
# subject-of-test: Recombinant human HSD17B13 enzyme (Homo sapiens (Human))
# Sequence (Q7Z5P4 20-300): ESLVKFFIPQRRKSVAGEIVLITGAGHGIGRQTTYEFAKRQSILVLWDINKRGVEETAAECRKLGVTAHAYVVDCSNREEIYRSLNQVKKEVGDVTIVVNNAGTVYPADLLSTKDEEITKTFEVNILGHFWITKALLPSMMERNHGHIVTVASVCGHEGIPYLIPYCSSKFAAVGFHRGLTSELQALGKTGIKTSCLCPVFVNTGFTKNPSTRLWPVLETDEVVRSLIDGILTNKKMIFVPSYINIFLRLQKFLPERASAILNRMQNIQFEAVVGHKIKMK
# protocol-summary: HSD17b13 NAD(P)H-Glo Biochemical Assay
# assay-conditions: 50 uM estradiol, 1 mM NAD+; read-out: HSD17β13 IC50

Some solved entries appear below for comparison.
[
  {
    "molecule": "CCCCCOc1ncc2c(n1)c(C)nn2-c1cc(C(F)(F)F)c(F)c(O)c1F",
    "readout": "IC50",
    "result": "100 to 1000 nM"
  },
  {
    "molecule": "COC1CCN(c2ccc3c(cnn3-c3cc(O)c(F)c(F)c3)c2)C1 (centres unmarked)",
    "readout": "IC50",
    "result": "1000 to 30000 nM"
  },
  {
    "molecule": "Oc1cc(-n2ncc3cc(-c4ccc(C(F)F)cc4)ccc32)ccc1F",
    "readout": "IC50",
    "result": "100 to 1000 nM"
  },
  {
    "molecule": "Cc1nn(-c2cc(C(F)(F)F)c(F)c(O)c2F)c2cnc(N3CCOCC34CC4)cc12",
    "readout": "IC50",
    "result": "< 100 nM"
  },
  {
    "molecule": "CS(=O)(=O)N1CCN(c2cc3cnn(-c4cc(O)c(Cl)c(F)c4)c3cn2)CC1",
    "readout": "IC50",
    "result": "1000 to 30000 nM"
  },
  {
    "molecule": "C[C@H]1COCCN1c1cc2cnn(-c3cc(O)c(F)c(C(F)(F)F)c3)c2cn1",
    "readout": "IC50",
    "result": "100 to 1000 nM"
  },
  {
    "molecule": "Oc1ccc(-c2cc3cnn(-c4cc(O)c(F)c(F)c4)c3cc2Cl)c(Cl)c1",
    "readout": "IC50",
    "result": "100 to 1000 nM"
  },
  {
    "molecule": "COC(=O)c1nn(-c2cc(C(F)(F)F)c(F)c(O)c2F)c2ccc(N(C)C3CCOCC3)cc12",
    "readout": "IC50",
    "result": "100 to 1000 nM"
  },
  {
    "molecule": "CC1CN(S(C)(=O)=O)CCN1c1cc2cn(-c3cc(O)c(F)c(C(F)(F)F)c3)nc2cn1 (centres unmarked)",
    "readout": "IC50",
    "result": "100 to 1000 nM"
  },
  {
    "molecule": "Oc1ccc(-c2ccc3c(cnn3-c3ccc(F)c(O)c3F)c2)cc1Cl",
    "readout": "IC50",
    "result": "100 to 1000 nM"
  }
]

API: value(readout= IC50, system= Recombinant human HSD17B13 enzyme (Homo sapiens (Human)), query= `Oc1cc(-n2ncc3cc(-c4cccc(Cl)c4)ccc32)ccc1F` )
100 to 1000 nM

API: value(readout= IC50, system= Recombinant human HSD17B13 enzyme (Homo sapiens (Human)), query= `Cc1nn(-c2ccc(F)c(O)c2)c2cc(F)c(N3CCN(S(C)(=O)=O)CC34CC4)cc12` )
100 to 1000 nM

API: value(readout= IC50, system= Recombinant human HSD17B13 enzyme (Homo sapiens (Human)), query= `Oc1ccc(-c2ccc3c(cnn3-c3cc(O)c(F)c(F)c3)c2)cn1` )
100 to 1000 nM

API: value(readout= IC50, system= Recombinant human HSD17B13 enzyme (Homo sapiens (Human)), query= `CC(=O)Nc1ccc(-c2ccc3c(cnn3-c3ccc(F)c(O)c3)c2)c(Cl)c1` )
100 to 1000 nM
